Let's look at some molecules and their measured Barnyardgrass plant response rating (0 to 100 scale).
Test system: barnyardgrass
Experiment: Test B pre-/postemergence herbicide test
Assay type: in vivo, Echinochloa crus-galli
Details: 125 g ai/ha; 0 = no effect, 100 = complete control; preemergence
READOUT_KIND: Barnyardgrass plant response rating (0 to 100 scale)

>>> print(df.to_string())
                                   molecule  assay_result
0  CCN(CC)C(=O)c1ccc(F)c(NC(=O)C2CC(C(C)(C)C)=NN2CC)c1 (racemic)            20
1  CCN(CC)C(=O)c1cccc(NC(=O)c2sc(C(C)(C)C)nc2C)c1            20
2  CCc1nc(C(C)(C)C)sc1C(=O)Nc1cccc(C(=O)N(CC)CC)c1            50
3  Cc1nn(C(C)(C)C)cc1C(=O)Nc1cccc(OC(C)C)c1             0
4  CCc1nc(C(C)(C)C)sc1C(=O)Nc1cccc(C(=O)N(C)CC)c1            50
5  CCn1nc(C(C)(C)C)cc1C(=O)Nc1nc(C(=O)N2CC=CC2)ccc1F            20
6  CCc1nn(C(C)(C)C)cc1C(=O)Nc1cc(C(=O)N(C)CC)ccc1F            30
7     CCOc1cccc(NC(=O)c2cn(C(C)(C)C)nc2C)c1             0
8  CCc1nn(C(C)(C)C)cc1C(=O)Nc1cccc(C(C)=O)c1            70

* * *

Let's look at some compounds and their measured Corn plant response rating.
Tested on: corn
Assay: Test B pre-/postemergence herbicide test
Assay type: in vivo, Zea mays
Settings: postemergence, 125 g ai/ha; visual rating, scale 0 (no effect) to 100 (complete control)
READOUT_KIND: Corn plant response rating

In [3]: df
Out[3]:
                                    compound  assay_result
 0  CCOc1cccc(NC(=O)c2cn(C(C)(C)C)nc2C)c1 [Compound 190]            10
 1  CCc1nc(C(C)(C)C)sc1C(=O)Nc1cccc(C(=O)N(CC)CC)c1 [Compound 205]            20
 2  CC(C)(C)c1cc(C(=O)Nc2cccc(SC(F)(F)F)c2)n(CCF)n1 [Compound 132]            20
 3  CCOC(=O)c1cc(NC(=O)c2cc(C(C)(C)C)nn2CC)c(F)cc1OC [Compound 76]            10
 4  CCc1nc(C(C)(C)C)sc1C(=O)Nc1cccc(C(=O)NCC2CC2)c1 [Compound 212]            20
 5  CC(=O)c1cccc(NC(=O)c2cc(C(C)(C)C)nn2CC(F)(F)F)c1 [Compound 126]             0
 6  CCc1nc(C(C)(C)C)sc1C(=O)Nc1cccc(C(=O)NCCF)c1 [Compound 209]            20
 7  C#CCNC(=O)c1cccc(NC(=O)c2cc(C(C)(C)C)nn2CC)n1 [Compound 147]            10
 8  CCn1nc(C(C)(C)C)cc1C(=O)Nc1ccc(OC)c(C(=O)OC(C)C)c1 [Compound 101]            10
 9  CCNC(=O)c1ccc(F)c(NC(=O)C2CC(C(C)(C)C)=NN2CC)c1 (racemic) [Compound 269]            10
10  Cn1nc(C(C)(C)C)cc1C(=O)Nc1cccc(C#N)c1 [Compound 121]             0
11  CCn1nc(C(C)(C)C)cc1C(=O)Nc1cccc(C(=O)OCCF)c1C [Compound 91]            10
12  CCNC(=O)c1cccc(NC(=O)c2cc(C(C)(C)C)nn2CC)n1 [Compound 144]            20
13  CCN(CC)C(=O)c1cccc(NC(=O)c2sc(C(C)(C)C)nc2C)c1 [Compound 199]            10
14  CCc1nc(C(C)(C)C)sc1C(=O)Nc1cccc(C(=O)N(CC)CC)n1 [Compound 214]             0
15  CCn1nc(C(C)(C)C)cc1C(=O)Nc1cccc(C(=O)N(C)OC)n1 [Compound 246]             0
16  CCNC(=O)c1ccc(F)c(NC(=O)c2sc(C(C)(C)C)nc2CC)c1 [Compound 226]            10
17  CCn1nc(C(C)(C)C)cc1C(=O)Nc1cc(C(=O)NCC2CC2)ccn1 [Compound 155]            10
18  CCn1nc(C(C)(C)C)cc1C(=O)Nc1cc(C(=O)N(C)OC)ccc1F [Compound 244]            10
19  CC(=NO)c1cccc(NC(=O)c2cn(C(C)C)nc2C)c1 [Compound 180]             0
20  CCOC(=O)c1ccnc(NC(=O)c2cc(C(C)(C)C)nn2CC)c1 [Compound 157]             0
21  CCn1nc(C(C)(C)C)cc1C(=O)Nc1cccc2c1CCN(C1CCCC1)C2=O [Compound 66]            10
22  CCn1nc(C(C)(C)C)cc1C(=O)Nc1cccc(C(C)=O)c1 [Compound 122]            10
